- System: ATP;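 note: ATP exposure 15 min at 22 °C before imaging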
- Method: switch fluorescence ratio, 500 uM ATP over buffer (Cy3 cluster intensity, sum of 5 cycles each) (fold (ratio)); higher = stronger signal-on switching upon ATP binding; sequences stand for … in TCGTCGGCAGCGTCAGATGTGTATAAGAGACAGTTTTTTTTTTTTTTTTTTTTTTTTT…TC
- Condition Description: aptamer strand: ATP DNA aptamer (quencher-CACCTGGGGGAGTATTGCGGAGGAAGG + anchor), 100 nM annealed; ATP concentration: 500 uM
Measurement Type: switch fluorescence ratio

> print(dat)
      seq.text  measurement
 1  TTGGGCGAGG         1.02
 2  CGGCTTATGT        0.981
 3  GTAATTCAGA         0.99
 4  CGGGTAAGTG         0.97
 5  TTGTAAGGTC            1
 6  TGTACTTTGG         1.01
 7  GAAGCGGGTG          1.1
 8  TAGTTGGGTT        0.986
 9  TTTGGACGCT         1.04
10  CGCTATTGTT         1.03

====

- Tested on: ATP;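 note: ATP exposure 15 min at 22 °C before imaging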
- Method: switch fluorescence ratio, 500 uM ATP over buffer (Cy3 cluster intensity, sum of 5 cycles each) (fold (ratio)); higher = stronger signal-on switching upon ATP binding; sequences stand for … in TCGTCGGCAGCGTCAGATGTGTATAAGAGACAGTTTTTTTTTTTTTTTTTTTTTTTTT…TC
- Condition Description: aptamer strand: ATP DNA aptamer (quencher-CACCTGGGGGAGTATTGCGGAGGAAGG + anchor), 100 nM annealed; ATP concentration: 500 uM
Measurement Type: switch fluorescence ratio

> print(dat)
      seq.text  test.target  measurement
 1  TTGTTACAGA          ATP            1
 2  AGTTAGGGTC          ATP            1
 3  TCAAGGGCGG          ATP        0.988
 4  TCGTCTCTTT          ATP        0.986
 5  TTTGAAGTGT          ATP        0.997
 6  TATTTCGCGG          ATP        0.993
 7  TCAGTTTGGA          ATP         1.01
 8  GATTTCGATT          ATP        0.969
 9  GGGGGAAGGT          ATP        0.982
10  AGGCGGCCGT          ATP        0.989

====

- System: ATP;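 note: ATP exposure 15 min at 22 °C before imaging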
- Method: switch fluorescence ratio, 500 uM ATP over buffer (Cy3 cluster intensity, sum of 5 cycles each) (fold (ratio)); higher = stronger signal-on switching upon ATP binding; sequences stand for … in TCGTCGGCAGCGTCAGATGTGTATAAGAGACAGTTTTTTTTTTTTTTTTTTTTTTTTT…TC
- Condition Description: aptamer strand: ATP DNA aptamer (quencher-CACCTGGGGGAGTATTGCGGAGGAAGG + anchor), 100 nM annealed; ATP concentration: 500 uM
Entries and their switch fluorescence ratio values follow.
Measurement Type: switch fluorescence ratio

> print(dat)
      seq.text  measurement
 1  AGAACCTAGT        0.996
 2  AGCTATGTTA         1.03
 3  TTTAAAAGGT            1
 4  GGGTTTTATT        0.981
 5  AACAGGGGGT         1.01
 6  TGTTGCAATA         1.24
 7  AGGGTTGCGA         1.02
 8  TTGTCCAGGA        0.977
 9  ACTGCCTTCA         1.52
10  ACGGGGAGTT         1.05
